assay.details: Intrinsic clearance in human hepatocytes measured per 10^6 cells
Type: ADME, cell-based, Hepatocyte
test.settings: read-out: CLH
Listed below: hepatocyte CLint values for each entry.
value.type: hepatocyte CLint (µL/min/1e6 cells)

>  <compound.structure>
CC(C)(C)S(=O)(=O)C[C@H](C1CC1)N1C(=O)[C@@](C)(Cn2cc(C(=O)O)cn2)C[C@H](c2cccc(Cl)c2)[C@H]1c1ccc(Cl)cc1

>  <scale.unit>
µL/min/1e6 cells

>  <endpoint.value>
2.8

$$$$
>  <compound.structure>
CC(C)(C)S(=O)(=O)C[C@H](C1CC1)N1C(=O)[C@@](C)(Cc2nccs2)C[C@H](c2cccc(Cl)c2)[C@H]1c1ccc(Cl)c(F)c1

>  <scale.unit>
µL/min/1e6 cells

>  <endpoint.value>
14

$$$$
>  <compound.structure>
CC(C)(C)S(=O)(=O)C[C@H](C1CC1)N1C(=O)[C@@](C)(Cc2ncc(C(=O)O)cn2)C[C@H](c2cccc(Cl)c2)[C@H]1c1ccc(Cl)c(F)c1

>  <scale.unit>
µL/min/1e6 cells

>  <endpoint.value>
14

$$$$
>  <compound.structure>
CC(C)(C)S(=O)(=O)C[C@H](C1CC1)N1C(=O)[C@@](C)(Cc2ncc(C(=O)O)s2)C[C@H](c2cccc(Cl)c2)[C@H]1c1ccc(Cl)c(F)c1

>  <scale.unit>
µL/min/1e6 cells

>  <endpoint.value>
10

$$$$
>  <compound.structure>
CC(C)(C)S(=O)(=O)C[C@H](C1CC1)N1C(=O)[C@@](C)(Cc2ccc(C(=O)O)cn2)C[C@H](c2cccc(Cl)c2)[C@H]1c1ccc(Cl)cc1

>  <scale.unit>
µL/min/1e6 cells

>  <endpoint.value>
10

$$$$
>  <compound.structure>
CC(C)(C)S(=O)(=O)C[C@H](C1CC1)N1C(=O)[C@@](C)(Cc2ncc(C(=O)CO)s2)C[C@H](c2cccc(Cl)c2)[C@H]1c1ccc(Cl)cc1

>  <scale.unit>
µL/min/1e6 cells

>  <endpoint.value>
47

$$$$
